# inhibition values compiled below
- tgt: Glucose transporter (Leishmania mexicana)
- assay.text: ST_JUDE_LEISH: Cytotoxicity at 2uM final concentration against transgenic Leishmania Mexicana promastigotes LmGT2 that are glucose transport deficient and complemented with the L. Mexicana glucose transporter 2. Activity is measured by DNA content using SYBR green in vitro
- Format: functional
Please state the figure in %; there is no need to write the unit.

Consider the worked cases shown below.
compound: O=C(Nc1ccc(F)cc1)c1ccc(C(=O)NC2CCN(CC3CCCCC3)CC2)cc1
tgt: Glucose transporter (Leishmania mexicana)
unit.abbreviation: %
inhibition: 11.7
//
compound: CN(C)Cc1cc2c(O)c(Cc3ccccc3)ccc2o1
tgt: Glucose transporter (Leishmania mexicana)
unit.abbreviation: %
inhibition: 3.94
//
compound: Nc1ccc(-c2cnc3[nH]cc(-c4ccc(C(=O)O)cc4)c3c2)cn1
tgt: Glucose transporter (Leishmania mexicana)
unit.abbreviation: %
inhibition: 1.27
//
compound: CN(CCCCCNC(=O)/C=C/c1ccc(Cl)c(Cl)c1)CCc1c[nH]c2ccccc12
tgt: Glucose transporter (Leishmania mexicana)
unit.abbreviation: %
inhibition: 12.6
//
compound: COCCN1CCC(CNCC(C)(C)c2nc(-c3ccc(Cl)c(O)c3)c(-c3ccncc3)[nH]2)CC1
tgt: Glucose transporter (Leishmania mexicana)
unit.abbreviation: %
inhibition: 7.7
//
compound: CN(C)CCN(C)Cc1ccc(-c2cccc(NC(=O)c3cccc(C#N)c3)c2)cc1
tgt: Glucose transporter (Leishmania mexicana)
unit.abbreviation: %
inhibition: 8.24
//
compound: CC(C)CCN1CCCN(Cc2cccc(NC(=O)c3ccc(Cl)c(Cl)c3)c2)CC1
tgt: Glucose transporter (Leishmania mexicana)
unit.abbreviation: %
inhibition: -3.74
//
compound: COc1cc(/C=C/C(=O)NC2CCC(N3CCC(c4ccccc4C)CC3)CC2)cc(OC)c1 (centres undefined)
tgt: Glucose transporter (Leishmania mexicana)
unit.abbreviation: %
inhibition: 0.77

Request: For the compound CC(C)Oc1ccc(C=CC(=O)Nc2noc3ccccc23)cc1 , give its measured inhibition value.
Response: 2.36

Request: Provide inhibition value for the following compound: CN(C)CCN(C)Cc1ccc(-c2ccc3c(Nc4ccc(Oc5ccccc5)cc4)ccnc3c2)o1
Response: 2.63

Request: // fetch inhibition given entry O=C(Nc1cccc(-c2ccc(-c3nc4ccccc4[nH]3)s2)c1)c1ccncc1
Response: 3.84

Request: Give inhibition for Nc1cnc(C#Cc2cc3ncnc(N(CCN4CCOCC4)c4ccc(OCc5cccc(F)c5)c(Cl)c4)c3s2)cn1
Response: -3.58

Request: Report measured inhibition; entry is O=C1NC(=O)C(c2cccc(NC(=O)c3ccncc3)c2)=C1c1ccccc1
Response: -4.34

Request: Hello, please tell me recorded inhibition for this one: Oc1c(Br)cc2oc3c(c2c1CNCc1ccccc1)CCCC3
Response: -0.81

###

// values below are reported inhibition
- tgt: Solute carrier family 2, facilitated glucose transporter member 1 (Homo sapiens)
- assay.text: ST_JUDE_LEISH: Cytotoxicity at 2uM final concentration against transgenic Leishmania Mexicana promastigotes LmGLUT1 that are glucose transport deficient and complemented with the human glucose transporter GLUT1. Activity is measured by DNA content using SYBR green in vitro
- Type: functional
Enter your answer as a number in %; do not include the unit.

compound: CCc1cc(-c2n[nH]c(C(F)(F)F)c2-c2ccccc2)c(O)cc1OC
tgt: Solute carrier family 2, facilitated glucose transporter member 1 (Homo sapiens)
measured.number: 2.03
--
compound: OC1CCC(Nc2ccc3ncc(-c4ccc5ccccc5c4)n3n2)CC1 (stereo not given)
tgt: Solute carrier family 2, facilitated glucose transporter member 1 (Homo sapiens)
measured.number: 1.14

Request: Find the measured inhibition of Cc1cccc(C(=O)NC(NC(=S)Nc2cc(Cl)ccc2Cl)C(Cl)(Cl)Cl)c1 (stereo not given) and report it.
Response: -0.37

Request: Look up and report measured inhibition for this entry: CCOc1ccc2c(=NN=Cc3cccc(OC)c3OC)cc(C)[nH]c2c1
Response: 4.91

Request: Return the recorded inhibition value; entry: COc1cccc(NC(=O)N2CCOC(CCN3CCC4(CCc5ccccc54)CC3)(c3ccc(Cl)c(Cl)c3)C2)c1 (stereo not given)
Response: 7.21

###

inhibition by entry:
- tgt: Hexose transporter 1 (Plasmodium falciparum)
- assay.text: ST_JUDE_LEISH: Cytotoxicity at 2uM final concentration against transgenic Leishmania Mexicana promastigotes LmPfHT that are glucose transport deficient and complemented with the Plasmodium falciparum hexose transporter. Activity is measured by DNA content using SYBR green in vitro
- Format: functional
Field: numeric (%). Do not append units.

These recorded examples may help you get a feel for the data.
molecule: O=C1OC2(CN1CC1CCN(Cc3ccc(O)c(Cl)c3)CC1)c1ccccc1-c1ccccc12
tgt: Hexose transporter 1 (Plasmodium falciparum)
inhibition / %: 6.3
//
molecule: O=C(Nc1ccc(-c2cccc(-c3nc4ccccc4[nH]3)c2)cc1)Nc1ccsc1
tgt: Hexose transporter 1 (Plasmodium falciparum)
inhibition / %: 4.27

Request: Kindly indicate its recorded inhibition. Item: CC(=O)c1c(Cc2ccccc2Cl)c[nH]c1C
Response: 3.16

###

- tgt: Hexose transporter 1 (Plasmodium falciparum) (UniProt O97467)
- assay.text: ST_JUDE_LEISH: Cytotoxicity at 2uM final concentration against transgenic Leishmania Mexicana promastigotes LmPfHT that are glucose transport deficient and complemented with the Plasmodium falciparum hexose transporter. Activity is measured by DNA content using SYBR green in vitro
- Type: functional
inhibition values for the compounds below.
Report only the number, with the unit % understood.

compound: O=C(CCN(Cc1ccco1)c1nc(-c2ccc(F)cc2)nc2ccccc12)NC1CC1
endpoint.name: inhibition
measured.number: 1.65

Request: Supply reported inhibition belonging to this compound: Cc1cc(F)ccc1[C@H]1CNCCN1C(=O)N(C)C(C)(C)c1cc(C(F)(F)F)cc(C(F)(F)F)c1
Response: -1.23

Request: Note down inhibition recorded for COc1cccc2cc(C(=O)N[C@@H](CC(C)C)C(=O)N[C@H](/C=N/NC(=O)N3CCN(C)CC3)CCc3ccccc3)oc12
Response: 11.9

Request: Note down inhibition recorded for O=C(CSc1nc(-c2ccccc2Cl)ns1)Nc1cccc(Cl)c1
Response: 1.79

###

Each entry below lists one item and its recorded inhibition value.
- tgt: Hexose transporter 1 (Plasmodium falciparum)
- assay.text: ST_JUDE_LEISH: Cytotoxicity at 2uM final concentration against transgenic Leishmania Mexicana promastigotes LmPfHT that are glucose transport deficient and complemented with the Plasmodium falciparum hexose transporter. Activity is measured by DNA content using SYBR green in vitro
- Type: functional
The figure you give is taken to be in %; do not add the unit.

Answered cases to consult:
molecule: COc1cc(CNCCCCCCNCc2cc(OC)c3ccccc3c2OC)c(OC)c2ccccc12
endpoint.name: inhibition
unit.abbreviation: %
measured.number: 11.8
--
molecule: Clc1ccc(Nc2nc(Nc3ccc(Cl)c(Cl)c3)nc(Sc3nc4ccccc4[nH]3)n2)cc1Cl
endpoint.name: inhibition
unit.abbreviation: %
measured.number: 9.05
--
molecule: Cc1cc(NS(=O)(=O)c2cccc(C(C)N3CCC(N4CCCC4)CC3)c2)ccc1C(C)C (stereo unspecified)
endpoint.name: inhibition
unit.abbreviation: %
measured.number: 5.82
--
molecule: CCc1cc(OC)ccc1C1CCN(CCCCNC(=O)c2ccc(NC(=O)c3ccc(Cl)cc3)cc2)CC1
endpoint.name: inhibition
unit.abbreviation: %
measured.number: 5.73
--
molecule: CCC(C)CN1CCN(c2ccc(NC(=O)c3cccs3)cc2)CC1C (stereo unspecified)
endpoint.name: inhibition
unit.abbreviation: %
measured.number: 0.02
--
molecule: O=C1Nc2cccc3c2C1(CCCCN1CCC(c2c[nH]c4cc(C(F)(F)F)ccc24)CC1)CCC3 (stereo unspecified)
endpoint.name: inhibition
unit.abbreviation: %
measured.number: 1.75
--
molecule: O=C(Nc1ccccc1)N(Cc1ccc(-c2cccc(CNCc3ccc4c(c3)OCO4)c2)cc1)C1CCN(Cc2ccccc2)CC1
endpoint.name: inhibition
unit.abbreviation: %
measured.number: 0.92
--
molecule: Cc1cc(-c2cccc(CNC3CCN(C)CC3)c2)ccc1S(=O)(=O)NCCN1CCCC1
endpoint.name: inhibition
unit.abbreviation: %
measured.number: 0.15
--
molecule: FC(F)(F)c1ccc2[nH]c(-c3ccc(-c4cccc(CNCc5ccccc5)c4)s3)nc2c1
endpoint.name: inhibition
unit.abbreviation: %
measured.number: 0.97
--
molecule: Cc1cccc2nc(-c3cccc(-c4ccc(NC(=O)COc5ccccc5C(N)=O)cc4)c3)[nH]c12
endpoint.name: inhibition
unit.abbreviation: %
measured.number: 4.11

Request: Tell me inhibition reported for COc1cc2nc(NCCCN3CCCCC3)nc(NCc3ccccc3)c2cc1OC
Response: 4.73

Request: Name the recorded inhibition of the item Cc1ccc2[nH]c(-c3ccc(C=CC(=O)NC4CCN(Cc5ccccc5)CC4)cc3)nc2c1 in your answer.
Response: 3.29

###

// inhibition lookup, one value per entry
- tgt: Glucose transporter (Leishmania mexicana) (UniProt O61059)
- assay.text: ST_JUDE_LEISH: Cytotoxicity at 2uM final concentration against transgenic Leishmania Mexicana promastigotes LmGT2 that are glucose transport deficient and complemented with the L. Mexicana glucose transporter 2. Activity is measured by DNA content using SYBR green in vitro
- Format: functional

Some compounds with known inhibition results, for comparison:
compound: COc1cccc(-c2cc(-c3ccc(NC(=O)c4ccccc4)cc3)c3c(N)ncnc3n2)c1
tgt: Glucose transporter (Leishmania mexicana) (UniProt O61059)
inhibition: -2.31%
//
compound: CCCCCCCN1CC[C@@H](C[C@H](N)Cc2ccnc3ccc(OC)cc23)[C@@H](CC)C1
tgt: Glucose transporter (Leishmania mexicana) (UniProt O61059)
inhibition: 0.03%
//
compound: CCCCCN1CCC(NS(=O)(=O)c2cccc(C(=O)Nc3ccc(C(F)(F)F)cc3)c2)C1 (stereo unspecified)
tgt: Glucose transporter (Leishmania mexicana) (UniProt O61059)
inhibition: 1.9%
//
compound: CCOC(=O)c1c(CCc2ccc(C(F)(F)F)cc2)nc2c(c1-c1ccc(C(=O)N[C@@H](C)c3ccncc3)cc1)C(=O)N1CCC[C@@H]21
tgt: Glucose transporter (Leishmania mexicana) (UniProt O61059)
inhibition: 0.48%
//
compound: CC(=O)c1ccc(NC(=O)CSc2nc(-c3ccccc3Cl)ns2)cc1
tgt: Glucose transporter (Leishmania mexicana) (UniProt O61059)
inhibition: 9.72%

Request: Write down inhibition measured for item CC(=O)c1cccc(S(=O)(=O)NCCCNc2nc3cc(C)cc(C)c3cc2C#N)c1
Response: -1.77%
